ASSAY SUMMARY: Weekly food intake of SHR rats
Format: in vivo, rat
STATED CONDITIONS: 60 mg/kg/d intragastric, week 7
Marks after values point to notes of the source that are not given here.
READOUT LABEL: Average dairy food intake

# annotated cases, reported Average dairy food intake shown
CCCCC(OC(C)=O)c1ccccc1C(=O)O[C@H]1C(=O)O[C@H]2O[C@]34C(=O)OC5C[C@@H](C(C)(C)C)C21[C@@]53[C@@H](O)[C@@H]1OC(=O)[C@@H](C)[C@@]14O (stereo partly drawn)	24.3^▴▴ g/d
Cc1nc(C)c(CO[C@H]2C(=O)O[C@H]3O[C@]45C(=O)OC6C[C@@H](C(C)(C)C)C32[C@@]64[C@@H](O)[C@@H]2OC(=O)[C@@H](C)[C@@]25O)nc1C (stereo partly drawn)	24.7^▴▴ g/d

Enquiry: Returns the measured Average dairy food intake for the input compound. Input: CC1C(=O)OC2C(O)C34C5CC(C(C)(C)C)C36C(OC(=O)C6O)OC4(C(=O)O5)C12O (stereo not drawn) [GB, ginkgolide B]
Return: 24.2^▴▴ g/d

----------
Items are presented alongside their recorded Average dairy food intake.
ASSAY SUMMARY: Weekly food intake of SHR rats
Type: in vivo, rat
STATED CONDITIONS: 60 mg/kg/d intragastric, week 1
Marks after values point to notes of the source that are not given here.

Previously resolved entries follow.
CC(=O)Oc1ccccc1C(=O)O[C@H]1C(=O)O[C@H]2O[C@]34C(=O)OC5C[C@@H](C(C)(C)C)C21[C@@]53[C@@H](O)[C@@H]1OC(=O)[C@@H](C)[C@@]14O (stereo partly drawn)	18.6^▴ g/d
Cc1nc(C)c(CO[C@H]2C(=O)O[C@H]3O[C@]45C(=O)OC6C[C@@H](C(C)(C)C)C32[C@@]64[C@@H](O)[C@@H]2OC(=O)[C@@H](C)[C@@]25O)nc1C (stereo partly drawn)	19.1^▴ g/d
CCCCC(OC(C)=O)c1ccccc1C(=O)O[C@H]1C(=O)O[C@H]2O[C@]34C(=O)OC5C[C@@H](C(C)(C)C)C21[C@@]53[C@@H](O)[C@@H]1OC(=O)[C@@H](C)[C@@]14O (stereo partly drawn)	19.0^▴ g/d
C[C@@H]1C(=O)O[C@H]2[C@H](O)[C@@]34C5C[C@@H](C(C)(C)C)C36[C@@H](OC(=O)[C@@H]6OC(=O)[C@H](c3ccccc3Cl)N3CCc6sccc6C3)O[C@@]4(C(=O)O5)[C@@]12O (stereo partly drawn)	19.4^▴ g/d

Enquiry: Need Average dairy food intake of CC1C(=O)OC2C(O)C34C5CC(C(C)(C)C)C36C(OC(=O)C6O)OC4(C(=O)O5)C12O (stereo not drawn) [GB, ginkgolide B] , thanks.
Return: 20.1^▴ g/d

Enquiry: Ok, now Cc1nc(C)c(C(=O)O[C@H]2C(=O)O[C@H]3O[C@]45C(=O)OC6C[C@@H](C(C)(C)C)C32[C@@]64[C@@H](O)[C@@H]2OC(=O)[C@@H](C)[C@@]25O)nc1C (stereo partly drawn)
Return: 19.5^▴ g/d

----------
Each entry below carries its recorded Systolic pressure.
Test system: spontaneously hypertensive rats (SHR)
ASSAY SUMMARY: Caudal artery systolic pressure of spontaneously hypertensive rats, 8 weeks of continuous medication
Assay type: in vivo, rat
STATED CONDITIONS: 120 mg/kg/d intragastric continuous, 7 d, 30 min after administration, x ± s, n = 8
Description: 2.1 Grouping and administration of animals: 112 SHR rats (the female and male SHR rats are half and half, and the female rats are not pregnant) with the body weight of 200-250 g are taken, the rats are enabled to adapt to a laboratory for a period of 5 d, blood pressure is measured once at a day to enable the rats to adapt to the environment and detect stimulation. […]
Give me the value, and tack the unit on after it.

Consider the reported Systolic pressure for these molecules:
CC1C(=O)OC2C(O)C34C5CC(C(C)(C)C)C36C(OC(=O)C6O)OC4(C(=O)O5)C12O (stereo not drawn) [GB, ginkgolide B]	148.54 ± 9.27 mmHg
Cc1nc(C)c(C(=O)O[C@H]2C(=O)O[C@H]3O[C@]45C(=O)OC6C[C@@H](C(C)(C)C)C32[C@@]64[C@@H](O)[C@@H]2OC(=O)[C@@H](C)[C@@]25O)nc1C (stereo partly drawn) [BZ]	153.74 ± 10.24 mmHg
CC(=O)Oc1ccccc1C(=O)O[C@H]1C(=O)O[C@H]2O[C@]34C(=O)OC5C[C@@H](C(C)(C)C)C21[C@@]53[C@@H](O)[C@@H]1OC(=O)[C@@H](C)[C@@]14O (stereo partly drawn) [BA]	150.95 ± 9.68 mmHg
CCCCC(OC(C)=O)c1ccccc1C(=O)O[C@H]1C(=O)O[C@H]2O[C@]34C(=O)OC5C[C@@H](C(C)(C)C)C21[C@@]53[C@@H](O)[C@@H]1OC(=O)[C@@H](C)[C@@]14O (stereo partly drawn) [BD]	152.64 ± 11.45 mmHg
C[C@@H]1C(=O)O[C@H]2[C@H](O)[C@@]34C5C[C@@H](C(C)(C)C)C36[C@@H](OC(=O)[C@@H]6OC(=O)[C@H](c3ccccc3Cl)N3CCc6sccc6C3)O[C@@]4(C(=O)O5)[C@@]12O (stereo partly drawn) [BL]	152.74 ± 10.25 mmHg

Enquiry: Query (molecule): Cc1nc(C)c(CO[C@H]2C(=O)O[C@H]3O[C@]45C(=O)OC6C[C@@H](C(C)(C)C)C32[C@@]64[C@@H](O)[C@@H]2OC(=O)[C@@H](C)[C@@]25O)nc1C (stereo partly drawn) [BM] ; field requested: Systolic pressure
Return: 152.31 ± 10.56 mmHg
